In this section, each of the compounds is paired with its reported composite z-score.
target: Calmodulin-1 (Homo sapiens) (UniProt P0DP23); experiment: CALM1 binders on microarrays, EGTA buffer, profiling panel, biochemical, small-molecule microarray, Cy5-labelled CALM1 (AID 1111); details: Cy5-CALM1 binding fluorescence, higher = more signal;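 note: labelled calmodulin applied in Tris saline Tween buffer holding calcium plus EGTA and DTT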

compound	composite z-score
COC(=O)CC=C[C@@H](C)[C@H](OCc1cccc(-c2ccccc2)c1)C1CCCCC1	-0.532
Cn1c(=O)n2n(c1=O)[C@H]1[C@H](O)[C@@H]3O[C@@H]3C(=NOCc3ccccc3)[C@H]1CC2	-0.17
C=COC[C@@H]1CN2[C@@H](CC[C@@H](C)[C@@H]2c2ccc(Br)cc2)C(=O)O1	-0.941
CCOC(=O)[C@H](CC(C)C)NC(=O)CCC1CC(OC(=O)NCc2cccc3ccccc23)CC2(CCCC(COC(=O)NCCCN3CCCC3=O)O2)O1 (stereo partly drawn)	0.446
CCc1cc2c(nc1CC)CCN(CCC(C)=NO[C@H](C)c1cn([C@@H]3COC[C@H]3O)nn1)C2	-0.433
CCc1cc2c(nc1CC)CCN(CCC(C)=NO[C@@H](C)c1cn([C@H](CO)Cc3ccccc3)nn1)C2	-0.41
CON=C[C@@H](C)[C@H](OCc1ccccc1)C(C)C	-0.442
CO[C@@H]1COC(=O)CC=C[C@H](C)[C@H](OC)COC(=O)[C@H](C)NC(=O)CC=C[C@H]1C	-0.981

###

In this section, each of the molecules is paired with its reported z-score.
experiment: E. coli acrAB mutant growth effects, primary screen, E. coli filamentation inducers, strain DRC39, OD650, 48 h (AID 1179);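 note: screen aims at cell division blockers that make cells filament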; conditions: E. coli DRC39 delta-acrAB growth, higher = more signal, called active from +8 up or from −8 down

molecule	z-score
CC(=O)OC[C@H]1O[C@H](CC=NO[C@H](C)c2cn([C@H](CO)Cc3ccccc3)nn2)C=C[C@@H]1OC(C)=O	-0.554
CC(C)=CCCC(C)=CCON=C1C[C@@H](O)[C@@H](O)[C@@H]2[C@@H]3C(=O)N(c4ccc(F)cc4F)C(=O)[C@@H]3CC[C@H]12	0.438
O=C1CCCC(C2=CCCCC2=O)C1 (stereo not drawn)	0.524
C#CCCCON=C1C[C@@H](O)[C@@H](O)[C@@H]2[C@@H]3C(=O)N(Cc4ccccc4)C(=O)[C@@H]3CC[C@@H]12	1.2
C#CCCCON=C1C[C@@H](O)[C@@H](O)[C@@H]2[C@@H]3C(=O)N(CC)C(=O)[C@@H]3CC[C@@H]12	-0.569
COC(=O)[C@H]1[C@@H](O)[C@@]2(O)c3ccccc3O[C@@]2(c2ccccc2)[C@@H]1c1ccccc1	-0.446
CON=Cc1ccc(C(=O)N2[C@H](c3ccc(C)cc3)[C@@H](C)CC[C@H]2C(=O)OC)cc1	0.0138
CO[C@@H]1COC(=O)[C@@H]2CCCN2C(=O)[C@@H](C)COC(=O)CC=C[C@H]1C	-0.179

###

molecular target: Streptavidin (Streptomyces avidinii) (UniProt P22629); experiment: streptavidin binders on small-molecule microarray, primary screen, artefact control for SMM compound annotation, biophysical, 635/667 nm fluorescence (AID 1147); settings: streptavidin binding, higher = more signal;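 note: signal reflects streptavidin binding to arrayed compounds as a control protein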
Sequence (P22629 whole entry, looked up): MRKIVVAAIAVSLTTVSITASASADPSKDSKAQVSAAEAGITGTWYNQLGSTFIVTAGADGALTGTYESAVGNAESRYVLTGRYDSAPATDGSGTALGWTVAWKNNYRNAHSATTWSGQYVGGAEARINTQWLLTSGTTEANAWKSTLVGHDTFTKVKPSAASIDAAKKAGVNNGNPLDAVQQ
In this section, each of the compounds is paired with its reported composite z-score.
measure-name: composite z-score

compound	measure-name	data-value
CON=Cc1ccc(C(=O)N2[C@H](c3ccc(C)cc3)[C@@H](C)CC[C@H]2C(=O)OC)cc1	composite z-score	0.651
Cc1ccc(S(=O)(=O)N[C@H]2COC(=O)CC=C[C@H](C)[C@@H](NS(=O)(=O)c3ccc(C)cc3)COC(=O)CC=C[C@@H]2C)cc1	composite z-score	1.17
CC(C)=CCCC(C)=CCON=C1C[C@@H](O)[C@@H](O)[C@@H]2[C@@H]3C(=O)N(C4CCCCC4)C(=O)[C@@H]3CC[C@@H]12	composite z-score	-0.0037
O=C1CCCC=C1C(O)CCCCBr (centres undefined)	composite z-score	1.51

###

assay: modulators of HCV replicon luciferase signal, primary screen, HCV replication inhibitor project, Huh7 cells, luciferase reporter (AID 1109); conditions: 48 h, higher = more signal;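 note: huh7 hepatoma cells harbouring a luciferase neomycin HCV replicon reporter; luciferase luminescence as measure of HCV replicon replication; test concentration not given here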
Please note: fulfilled applies when z-score is -0.2 or greater, and not fulfilled applies otherwise.

compound	class-assignment
COC(=O)CC=C[C@@H](C)[C@@H](C=NOCC[C@@H]1C=C[C@H](OC(C)=O)[C@@H](COC(C)=O)O1)NS(=O)(=O)c1ccc(C)cc1	not fulfilled
CC(CCN1CCc2nc(-c3ccccc3)c(-c3ccccc3)cc2C1)=NOC[C@@H](O)COCc1ccco1	not fulfilled
COC(=O)[C@@H]1CC[C@H](C)[C@@H](c2ccc(C)cc2)N1C(=O)c1ccc(C=NOC[C@@H](C)[C@H](OCc2ccccc2)C(C)C)cc1	not fulfilled
CCOC(=O)[C@H](CC(C)C)NC(=O)CCC1CC(OC(=O)NCCc2ccc(F)cc2)CC2(CCCC(COC(=O)NCC(c3ccccc3)c3ccccc3)O2)O1 (stereo partly specified)	fulfilled
COC(=O)C=CCCc1coc(C=CCNC(=O)OC)n1	not fulfilled
CCOC(=O)[C@H](CC(C)C)NC(=O)CCC1CC(OC(=O)NCCc2ccc(F)cc2)CC2(CCCC(COC(=O)NCCc3ccc(Cl)cc3)O2)O1 (stereo partly specified)	not fulfilled
CC(C)(C)N1C(=O)[C@H]2[C@H]3[C@H](O)C=CC(=O)[C@@H]3CC[C@H]2C1=O	fulfilled
COC(=O)[C@H](C)NC(=O)CCC1CC(OC(=O)NCc2ccc3c(c2)OCO3)CC2(CCCC(COC(=O)NCCc3ccccc3OC)O2)O1 (stereo partly specified)	not fulfilled
COc1ccc(O[C@@H]2[C@H](O)CO[C@H]2C=Cc2ccccc2)cc1	fulfilled
CC(C)(C)N1C(=O)[C@H]2[C@H]3[C@H](O)[C@H](O)CC(=O)[C@@H]3CC[C@H]2C1=O	fulfilled
CCC(=O)[C@@]1(O)C(=O)N2C(=C3C(=O)OCC[C@@H]31)N(Cc1ccccc1)C(C)=C(C(=O)OC)[C@H]2c1ccccc1	fulfilled
CC(=O)OC[C@H]1O[C@H](C#Cc2ccccc2)C=C[C@@H]1OC(C)=O	not fulfilled
C[C@@H](c1ccccc1)N1C(=O)[C@H]2[C@H]3[C@H](O)[C@H](O)CC(=O)[C@H]3CC[C@H]2C1=O	fulfilled
COC(=O)CC=C[C@H](C)[C@@H](OCc1cccc(Br)c1)[C@@H](C)[C@H](OC)C1CCCCC1	not fulfilled

###

biological target: Follistatin (Homo sapiens) (UniProt P19883); test: follistatin binders on small-molecule microarrays, primary screen, biochemical, small-molecule microarray, 635/667 nm fluorescence (AID 1132); settings: FST binding, 635 nm fluorescence, higher = more signal
Sequence (P19883 whole entry, looked up): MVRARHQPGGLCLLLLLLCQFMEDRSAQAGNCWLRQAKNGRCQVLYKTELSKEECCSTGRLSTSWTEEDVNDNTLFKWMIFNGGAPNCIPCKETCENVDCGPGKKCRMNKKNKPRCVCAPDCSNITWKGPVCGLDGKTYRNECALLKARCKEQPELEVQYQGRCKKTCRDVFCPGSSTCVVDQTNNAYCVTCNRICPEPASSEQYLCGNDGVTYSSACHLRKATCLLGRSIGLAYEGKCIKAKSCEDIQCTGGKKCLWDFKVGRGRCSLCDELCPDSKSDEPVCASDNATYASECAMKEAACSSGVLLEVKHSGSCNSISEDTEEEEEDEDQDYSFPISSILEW
In this section, each of the compounds is paired with its reported composite z-score.

compound	composite z-score
CCOC(=O)[C@H](CC(C)C)NC(=O)CCC1CC(OC(=O)NCc2cccc3ccccc23)CC2(CCCC(COC(=O)NCc3cccc(C(F)(F)F)c3)O2)O1 (stereo partly drawn)	0.312
CCC(=O)[C@@]1(O)C(=O)N2C(=C3C(=O)OCC[C@@H]31)N(Cc1ccccc1)C(C)=C(C(=O)OC)[C@H]2c1ccccc1	0.538
CCOC(=O)[C@H](CC(C)C)NC(=O)CCC1CC(OC(=O)NCCc2ccc(F)cc2)CC2(CCCC(COC(=O)NCCc3ccc(Cl)cc3)O2)O1 (stereo partly drawn)	0.692

###

target: Concanavalin-A (Canavalia ensiformis) (UniProt P02866); experiment: ConA small-molecule binders, primary screen, artefact control for SMM control protein annotation, biochemical, small-molecule microarray, Alexa647 label, 635 nm (AID 1127); conditions: ConA-A647 binding fluorescence, higher = more signal;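 note: z combines 667 nm emission intensity with signal-to-noise across three replicate slides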
Sequence (P02866 whole entry, looked up): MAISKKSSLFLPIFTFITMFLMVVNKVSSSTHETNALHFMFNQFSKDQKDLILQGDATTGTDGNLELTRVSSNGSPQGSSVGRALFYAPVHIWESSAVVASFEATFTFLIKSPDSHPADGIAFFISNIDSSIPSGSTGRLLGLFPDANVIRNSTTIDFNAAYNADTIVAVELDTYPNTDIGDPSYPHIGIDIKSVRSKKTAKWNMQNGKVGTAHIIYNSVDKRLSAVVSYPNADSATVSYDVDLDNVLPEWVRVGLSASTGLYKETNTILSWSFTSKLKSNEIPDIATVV
In this section, each of the molecules is paired with its reported composite z-score.

molecule	assay-system	composite z-score
C[C@@H]1CC[C@H]2C(=O)O[C@@H](Cc3ccccc3)CN2[C@H]1c1ccc(Br)cc1	Concanavalin-A (Canavalia ensiformis) (UniProt P02866)	0.266
CC(C)(C)N1C(=O)[C@H]2[C@H]3[C@H](O)[C@H](O)CC(=NOCc4ccccc4)[C@H]3CC[C@H]2C1=O	Concanavalin-A (Canavalia ensiformis) (UniProt P02866)	-0.344
CON=C[C@@H](C)[C@H](OCc1ccccc1)C(C)C	Concanavalin-A (Canavalia ensiformis) (UniProt P02866)	-0.413
CCCNC(=O)OC[C@H]1O[C@H](CCON=C(C)CCC(=O)OC[C@H]2O[C@H](c3ccccc3)C=C[C@@H]2Oc2ccc(OC)cc2)C=C[C@@H]1Oc1ccc(OC)cc1	Concanavalin-A (Canavalia ensiformis) (UniProt P02866)	-0.721
CO[C@H]1COC(=O)[C@@H](C)COC(=O)[C@H](C)NC(=O)CC=C[C@H]1C	Concanavalin-A (Canavalia ensiformis) (UniProt P02866)	-0.99
COC(=O)[C@@H]1CC[C@H](C)[C@@H](c2ccc(C)cc2)N1C(=O)c1ccc(C=NO[C@@H]2O[C@H](COC(C)=O)[C@@H](OC(C)=O)[C@H](OC(C)=O)[C@H]2OC(C)=O)cc1	Concanavalin-A (Canavalia ensiformis) (UniProt P02866)	1.01
COC(=O)CC=C[C@@H](C)[C@@H](C=NO[C@@H](C)c1cn([C@H](CO)Cc2ccccc2)nn1)OC	Concanavalin-A (Canavalia ensiformis) (UniProt P02866)	-0.61
CC(C)CON=C1C[C@@H](O)[C@@H](O)[C@@H]2[C@@H]3C(=O)N(C4CCCCC4)C(=O)[C@@H]3CC[C@H]12	Concanavalin-A (Canavalia ensiformis) (UniProt P02866)	1.11
O=C1OCCC=C1C(O)CCc1ccccc1 (stereo unspecified)	Concanavalin-A (Canavalia ensiformis) (UniProt P02866)	-0.0631
CC(C)(C)N1C(=O)[C@H]2[C@H]3[C@H](O)[C@H](O)CC(=O)[C@@H]3CC[C@H]2C1=O	Concanavalin-A (Canavalia ensiformis) (UniProt P02866)	0.395
C=C(C)C(=O)OCC1CN2[C@@H](CC[C@@H](C)[C@@H]2c2ccc(Br)cc2)C(=O)O1 (stereo partly specified)	Concanavalin-A (Canavalia ensiformis) (UniProt P02866)	0.59
CCOC(=O)[C@H](Cc1ccccc1)NC(=O)CCC1CC(OC(=O)NCc2ccc3c(c2)OCO3)CC2(CCCC(COC(=O)NCCC(C)C)O2)O1 (stereo partly specified)	Concanavalin-A (Canavalia ensiformis) (UniProt P02866)	1.11
O=c1n(-c2ccccc2)c(=O)n2n1CC[C@@H]1C(=NOCc3ccccc3)[C@H]3O[C@H]3[C@@H](O)[C@@H]12	Concanavalin-A (Canavalia ensiformis) (UniProt P02866)	-0.073
CON=C[C@@H](NS(=O)(=O)c1ccc(C)cc1)[C@H](C)C=CCC(=O)OC	Concanavalin-A (Canavalia ensiformis) (UniProt P02866)	-0.0082
CC(C)CON=C1C[C@@H](O)[C@@H](O)[C@@H]2[C@@H]3C(=O)N(C(C)(C)C)C(=O)[C@@H]3CC[C@H]12	Concanavalin-A (Canavalia ensiformis) (UniProt P02866)	-1.23
CC(C)CON=C1[C@H]2CCn3c(=O)n(Cc4cc5c(cc4Cl)OCO5)c(=O)n3[C@H]2[C@H](O)[C@@H]2O[C@H]12	Concanavalin-A (Canavalia ensiformis) (UniProt P02866)	0.702
